Would you mind telling me the reported pKd of each entry?
Target: T1, human Arc N-lobe (hArc-NL, residues 207–277) (human, UniProt Q7LC44 207-277)
T1 sequence: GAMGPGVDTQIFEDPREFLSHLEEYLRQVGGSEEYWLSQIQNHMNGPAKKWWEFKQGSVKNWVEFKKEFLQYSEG
Test: ITC
# log scale: pKd equals minus log10 of the concentration in mol/L

Param item = Ac-TSPKFRSRNESYMRAMST-NH2 [long GKAP repeat 4 peptide] ; retrieve measured pKd.
3.37

Param item = Ac-MPGCFRMR-NH2 [GKAP repeat 5 peptide] ; retrieve measured pKd.
2.62

Param item = Ac-RIPSYRYR-NH2 [stargazin peptide pStg(wt)] ; retrieve measured pKd.
4.47

Param item = Ac-TSPKFRSR-NH2 [GKAP repeat 4 peptide] ; retrieve measured pKd.
3.15
